biological target: Jack bean urease (Canavalia ensiformis, UniProt P07374); experiment: phenol red urease assay, […] nm; format: biochemical; details: 100 mM urea, 10 mM phosphate pH 7.0, 37°C, 30 min; read-out: IC50
Sequence (P07374 whole entry): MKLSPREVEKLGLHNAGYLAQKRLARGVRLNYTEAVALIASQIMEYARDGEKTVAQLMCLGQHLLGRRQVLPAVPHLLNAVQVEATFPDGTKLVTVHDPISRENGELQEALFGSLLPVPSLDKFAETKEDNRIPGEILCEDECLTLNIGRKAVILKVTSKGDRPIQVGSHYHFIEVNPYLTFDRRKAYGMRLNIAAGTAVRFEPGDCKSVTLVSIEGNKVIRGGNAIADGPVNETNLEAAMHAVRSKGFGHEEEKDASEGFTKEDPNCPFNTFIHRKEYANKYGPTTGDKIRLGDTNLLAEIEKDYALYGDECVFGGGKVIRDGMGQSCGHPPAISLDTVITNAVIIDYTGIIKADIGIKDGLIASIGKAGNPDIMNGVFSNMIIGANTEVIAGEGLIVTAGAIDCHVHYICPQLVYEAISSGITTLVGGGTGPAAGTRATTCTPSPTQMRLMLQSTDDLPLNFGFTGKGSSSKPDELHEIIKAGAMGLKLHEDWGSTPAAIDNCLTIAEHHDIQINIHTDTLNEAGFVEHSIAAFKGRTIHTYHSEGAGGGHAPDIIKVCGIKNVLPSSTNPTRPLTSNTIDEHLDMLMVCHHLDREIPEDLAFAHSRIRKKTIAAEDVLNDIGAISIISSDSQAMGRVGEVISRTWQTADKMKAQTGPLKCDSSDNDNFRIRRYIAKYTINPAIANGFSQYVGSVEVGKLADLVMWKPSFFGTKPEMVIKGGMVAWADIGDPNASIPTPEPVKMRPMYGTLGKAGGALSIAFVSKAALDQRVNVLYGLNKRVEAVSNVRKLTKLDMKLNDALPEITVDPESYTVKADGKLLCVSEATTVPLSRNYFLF
Metric: IC50 (µM)
Quick note: give the figure in µM, leave out the unit.

Tell me reported IC50 for N#CC1=C(N)Oc2[nH]c(=O)[nH]c(=O)c2C1c1c(Cl)cccc1Cl (centres unmarked) , tested with Jack bean urease (Canavalia ensiformis, UniProt P07374).
41

Another molecule to look at: Cc1cccc(C2C(C#N)=C(N)Oc3[nH]c(=O)[nH]c(=O)c32)c1 (centres unmarked)
41.1

src = paper PMC3584946
